- tgt: phosphorylated ERBB2 (pERBB2) (Homo sapiens, UniProt P04626)
- Construct: endogenous in cells
- Sequence (P04626 23-1255): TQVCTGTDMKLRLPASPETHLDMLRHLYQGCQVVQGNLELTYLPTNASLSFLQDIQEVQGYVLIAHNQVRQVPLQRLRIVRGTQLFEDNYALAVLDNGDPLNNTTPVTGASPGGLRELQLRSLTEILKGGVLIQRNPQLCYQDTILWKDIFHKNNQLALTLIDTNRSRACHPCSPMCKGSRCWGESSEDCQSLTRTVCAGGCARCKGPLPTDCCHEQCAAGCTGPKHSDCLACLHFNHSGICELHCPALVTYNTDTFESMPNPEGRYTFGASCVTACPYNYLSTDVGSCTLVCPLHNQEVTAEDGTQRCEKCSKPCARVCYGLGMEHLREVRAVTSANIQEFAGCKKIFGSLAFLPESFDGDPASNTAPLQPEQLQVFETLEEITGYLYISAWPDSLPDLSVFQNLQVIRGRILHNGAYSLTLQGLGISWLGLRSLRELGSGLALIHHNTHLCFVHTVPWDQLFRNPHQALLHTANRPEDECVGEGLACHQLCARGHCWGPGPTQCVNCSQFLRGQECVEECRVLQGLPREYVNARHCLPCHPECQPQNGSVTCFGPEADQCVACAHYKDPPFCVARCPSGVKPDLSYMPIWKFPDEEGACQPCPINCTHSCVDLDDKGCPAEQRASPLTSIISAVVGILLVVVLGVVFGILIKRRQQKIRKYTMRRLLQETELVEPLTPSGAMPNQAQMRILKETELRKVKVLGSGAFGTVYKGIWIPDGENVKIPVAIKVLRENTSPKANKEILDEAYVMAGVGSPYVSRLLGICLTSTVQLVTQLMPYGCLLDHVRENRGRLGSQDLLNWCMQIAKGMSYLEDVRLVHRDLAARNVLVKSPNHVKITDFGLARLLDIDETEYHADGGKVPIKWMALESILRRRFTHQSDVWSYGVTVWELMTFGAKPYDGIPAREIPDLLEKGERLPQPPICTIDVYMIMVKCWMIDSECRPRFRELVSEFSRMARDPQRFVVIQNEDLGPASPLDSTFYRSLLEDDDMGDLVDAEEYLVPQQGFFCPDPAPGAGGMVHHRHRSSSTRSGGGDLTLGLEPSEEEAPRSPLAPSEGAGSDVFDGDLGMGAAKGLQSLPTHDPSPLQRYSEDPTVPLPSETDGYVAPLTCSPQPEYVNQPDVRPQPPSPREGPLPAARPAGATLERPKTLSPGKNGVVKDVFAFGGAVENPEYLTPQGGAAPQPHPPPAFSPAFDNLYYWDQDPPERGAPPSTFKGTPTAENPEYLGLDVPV
- test: Detection of phosphorylated ERBB2 (pERBB2) by ELISA in BT-474 cells
- condition.label: four hour incubation
Each item that follows carries a reported pIC50.
# pIC50 = -log10(concentration in molar units)

Consider the following illustrative entries.
1. Cc1cc(Nc2ncnc3cc4c(nc23)N2CCOC[C@H]2CO4)c(F)cc1Oc1ccn2ncnc2c1
6.81
2. Cc1cc(Nc2ncnc3ccc4c(c23)O[C@@H]2CCNC[C@@H]2N4C)ccc1Oc1ccc2c(c1)ncn2C
6.95

Next:
// query Any idea what pIC50 was measured for `Cc1cc(Nc2ncnc3cc4c(cc23)N2CCNC[C@H]2CO4)ccc1Oc1ccc2c(c1)ncn2C` ?
// result 6.93

meta.source: patent US20260078135A1
